Origin of measurements: the RepoRT retention time repository (doi:10.1021/es4044374)

- protocol-summary: RP, Waters XBridge C18, 50 × 2.1 mm, 3.5 µm, 30 °C, 0.2 mL/min, estimated dead time 0.55 min; A: water + 0.1% formic acid, pH 3; B: methanol + 0.1% formic acid, pH 3; gradient (min/%B) 0/10 4/50 17/95 25/95 25.1/10 30/10
- condition-set: stereoisomer not certain
What LC retention time was measured for each of the following?
Quick reminder: number only, in min, skip the unit.

The recorded LC retention time for O=C1CC(C(=O)O)CC(=O)C1=C(O)C1CC1 (stereo unspecified) is 6.9

Given item CC(C)N(C(=O)C(=O)O)c1ccccc1 , the value recorded as its LC retention time is 5.6

Short answer for O=C(NCCN1CCOCC1)c1ccc(Cl)cc1 [Moclobemide] : LC retention time was 4.5

Per the record, CC(=NC#N)N(C)Cc1ccc(Cl)nc1 has LC retention time of 5.3

The reported value for NCC(O)COc1ccc(CC(N)=O)cc1 (stereo unspecified) in terms of LC retention time is 1

Form field LC retention time, entry CCc1cccc(CC)c1N(COC)C(=O)CCl : 11.7

The compound listed as CC(C)=NOCCOC(=O)C(C)Oc1ccc(Oc2cnc3cc(Cl)ccc3n2)cc1 (stereo unspecified) has a reported LC retention time of 15

LC retention time for N#CN=C1SCCN1Cc1ccc(Cl)nc1 is 5.8

So, Cn1sc(Cl)cc1=O ? Its LC retention time was 3.7

LC retention time reading for CCc1cccc(C)c1N(C(=O)CCl)C(C)COC (stereo unspecified) : 11.8

Just so you know, measured LC retention time for CCc1cccc(C)c1N(C(=O)CS(=O)(=O)O)C(C)COC (stereo unspecified) came out at 7.8

# LC retention time (compound: N#Cc1nn(-c2c(Cl)cc(C(F)(F)F)cc2Cl)c(N)c1C(F)(F)F ) is 12.5

LC retention time measured on CC(C)(C)C(=O)C(Oc1ccc(Cl)cc1)n1ccnc1 (stereo unspecified) = 8.1

NC(=O)N=C1SCCN1Cc1ccc(Cl)nc1 [Thiacloprid-amide] has a reported LC retention time of 4.6

GET /value?item= CCN(CC)CCNC(=O)c1cc(Cl)c(N)cc1OC [Metoclopramide] &field=LC retention time returns 4.3

Record COC=C(C(=O)OC)c1ccccc1Oc1cc(Oc2ccccc2C#N)ncn1 . Reported LC retention time: 9.9

Recorded LC retention time (compound NCC1(CC(=O)O)CCCCC1 ): 3.6

// COc1ccnc(CS(=O)c2nc3ccc(OC(F)F)cc3[nH]2)c1OC (stereo unspecified) : LC retention time value = 6.6

For record CC(C)Nc1nc(Cl)nc(NC(C)C)n1 the listed LC retention time is 9.9

Measured LC retention time, O=C(Nc1ccc(Cl)cc1)Nc1ccc(Cl)c(Cl)c1 : 14.8

Entry CCOCN(C(=O)CCl)c1c(C)cccc1CC , LC retention time reported as 11.7

Briefly, LC retention time measured for Cc1ccc(C(C)NC(=O)C(NC(=O)OC(C)C)C(C)C)cc1 (stereo unspecified) : 11.4

GET /value?item= c1ccc(C2CN3CCSC3=N2)cc1 (stereo unspecified) &field=LC retention time returns 2.9

Entry under test: CC1COC(Cn2cncn2)(c2ccc(Oc3ccc(Cl)cc3)cc2Cl)O1 (stereo unspecified) . Its LC retention time was 14.1

Briefly, LC retention time measured for CCNC(=O)NC(=O)C(C#N)=NOC : 5.6

# compound O=c1[nH]c2c(c(=O)n1C1CCCCC1)CCC2 ; its LC retention time = 8.6
